experiment: AUC in Sprague-Dawley rat at 2 mg/kg, iv; type: ADME, organism-based; set-up: dose 2 mg/kg, route intravenous; conditions: plasma
valueKind: AUC (ng·h/mL)
Give your result in ng·h/mL as a bare value.

Reported AUC of "C[C@@H]1CN(c2ccc(F)cc2C(F)(F)F)CCN1S(=O)(=O)c1ccc([C@@](O)(C(N)=O)C(F)(F)F)s1" : 4310

====

assay: Oral bioavailability in C57B6 mouse at 10 mg/kg; format: ADME, organism-based; conditions: in vivo
Reported values of bioavailability for individual entries
The response must be a number in % with no trailing unit.

Use the examples below as a reference point.
• C[C@@H]1CN(c2ccc(F)cc2C(F)(F)F)CCN1S(=O)(=O)c1cccc([C@@](O)(C(N)=O)C(F)(F)F)c1 = 46
• C[C@@H]1CN(c2ccc(F)cc2C(F)(F)F)CCN1S(=O)(=O)c1ccc([C@@](C)(O)C(F)(F)F)s1 = 19

In the following, a different molecule is considered.
Documented bioavailability of "C[C@@H]1CN(c2ccc(F)cc2C(F)(F)F)CCN1S(=O)(=O)c1ccc([C@@](O)(C(N)=O)C(F)(F)F)s1" : 67
